Tested on: corn
Assay: Phytotoxicity test for upland field crops (foliar treatment test)
Type: in vivo
Conditions: 100 g ai/ha, Corn (14 days after treatment)
endpoint: Foliar treatment phytotoxicity, Corn
Give bare numbers.

[
  {
    "compound": "Cn1ncnc1COCc1nc(C(F)(F)F)ccc1C(=O)Nc1nnnn1C [Compound No. 1-102]",
    "endpoint": "Foliar treatment phytotoxicity, Corn",
    "endpointValue": 8
  }
]

Hey, can you go through the list below and give me Foliar treatment phytotoxicity, Corn for every item?
1. Cn1nnc(CSCc2nc(C(F)(F)F)ccc2C(=O)N(c2nnnn2C)S(C)(=O)=O)n1 [Compound No. 2-110]
2. Cn1nnc(COc2nc(C(F)(F)F)ccc2C(=O)Nc2nnnn2C)n1 [Compound No. 2-1]
3. CCCn1nnnc1NC(=O)c1ccc(C(F)(F)F)nc1COCc1ncn(C)n1 [Compound No. 2-114]
4. Cn1nnc(COCc2nc(C(F)F)ccc2C(=O)Nc2nnnn2C)n1 [Compound No. 2-84]
5. COCn1nnc(COCc2nc(C(F)(F)F)ccc2C(=O)Nc2nnnn2C)n1 [Compound No. 2-91]
6. Cn1nnnc1CSc1nc(C(F)(F)F)ccc1C(=S)Nc1nnnn1C [1-44]

0
2
0
4
3
3

Report Foliar treatment phytotoxicity, Corn from corn testing of C=Cc1nc(COCc2nc(C(F)(F)F)ccc2C(=O)Nc2nnnn2C)nn1C [Compound No. 2-127]
0

----------
Would you kindly list Soil treatment phytotoxicity, Cotton for each of these compounds?
System: cotton
Assay: Phytotoxicity test for field crops (soil treatment test)
Type: in vivo
Details: 100 g ai/ha; Cotton (20 days after treatment)
Answers are plain numbers.

Some compounds with known Soil treatment phytotoxicity, Cotton results, for comparison:
[
  {
    "substanceSmiles": "Cn1nnc(CSCc2nc(C(F)F)ccc2C(=O)Nc2nnnn2C)n1",
    "Soil treatment phytotoxicity, Cotton": 3
  },
  {
    "substanceSmiles": "Cn1nnc(COCc2nc(C(F)F)ccc2C(=O)Nc2nnnn2C)n1",
    "Soil treatment phytotoxicity, Cotton": 7
  }
]

Give the reported Soil treatment phytotoxicity, Cotton for this compound. "Cn1nc(COCc2nc(C(F)(F)F)ccc2C(=O)Nc2nnnn2C)nc1Cl"
4

----------
I'd be grateful if you could share measured Foliar treatment phytotoxicity, Corn for these entries.
Test system: corn
Assay: Phytotoxicity test for upland field crops (foliar treatment test)
Type: in vivo
Conditions: 100 g ai/ha, Corn (7 days after treatment)
Give bare numbers.

[
  {
    "molecule": "Cn1nc(COCc2nc(C(F)(F)F)ccc2C(=O)Nc2nnnn2C)nc1Br [Compound No. 2-136]",
    "Foliar treatment phytotoxicity, Corn": 2
  },
  {
    "molecule": "Cn1nnc(COCc2nc(C(F)(F)F)ccc2C(=O)N(C(=O)c2ccccc2)c2nnnn2C)n1 [Compound No. 2-68]",
    "Foliar treatment phytotoxicity, Corn": 6
  },
  {
    "molecule": "CN(Cc1nnn(C)n1)c1nc(C(F)(F)F)ccc1C(=O)Nc1nnnn1C [Compound No. 2-26]",
    "Foliar treatment phytotoxicity, Corn": 0
  }
]

Lab note: next molecule to report on.
Identify measured Foliar treatment phytotoxicity, Corn corresponding to CON(Cc1nnn(C)n1)c1nc(C(F)(F)F)ccc1C(=O)Nc1nnnn1C [Compound No. 2-30]
1

----------
Please respond with reported pest or weed control at 50 g/ha for every item in the list.
Tested on: barnyard grass
Test: Herbicidal activity test against upland field weeds (foliar treatment test)
Format: in vivo
Settings: Echinochloa crus-galli, 50 g ai/ha, scale 0-100
Give bare numbers, in %.

[
  {
    "substanceSmiles": "Cn1nc(COCc2nc(C(F)(F)F)ccc2C(=O)Nc2nnnn2C)nc1Cl",
    "pest or weed control at 50 g/ha (%)": 98
  },
  {
    "substanceSmiles": "Cn1nnc(COCc2nc(C(F)(F)C(F)(F)F)ccc2C(=O)Nc2nnnn2C)n1",
    "pest or weed control at 50 g/ha (%)": 80
  },
  {
    "substanceSmiles": "CCCn1nnnc1NC(=O)c1ccc(C(F)(F)F)nc1COCc1nnn(CC)n1",
    "pest or weed control at 50 g/ha (%)": 95
  }
]

Enter pest or weed control at 50 g/ha (test system barnyard grass) for "CN(C)c1nc(COCc2nc(C(F)(F)F)ccc2C(=O)Nc2nnnn2C)nn1C"
90

----------
So I've got a bunch of compounds here, and I need their Soil treatment phytotoxicity, Corn values.
Test system: corn
Assay: Phytotoxicity test for field crops (soil treatment test)
Assay type: in vivo
Design: key: 0 (no harm); 9 (complete withered)
Conditions: 100 g ai/ha; Corn (10 days after treatment)
One number for each entry.

[
  {
    "substanceSmiles": "Cn1nnc(COCc2nc(C(F)(F)F)ccc2C(=S)Nc2nnnn2C)n1",
    "measuredOn": "corn",
    "Soil treatment phytotoxicity, Corn": 0
  }
]

For each of the compounds below, state Soil treatment phytotoxicity, Corn.
1. Cn1nnc(CSCc2nc(C(F)(F)F)ccc2C(=O)N(C(=O)c2ccccc2)c2nnnn2C)n1
2. Cn1nnc(CSCc2nc(C(F)(F)F)ccc2C(=O)N(c2nnnn2C)S(C)(=O)=O)n1

1: 1; 2: 0

I'm hoping you can list Soil treatment phytotoxicity, Corn for every compound here, please.
1. Cn1nnc(COc2nc(C(F)(F)F)ccc2C(=O)Nc2nnnn2C)n1
2. CN(Cc1nnn(C)n1)c1nc(C(F)(F)F)ccc1C(=O)Nc1nnnn1C
3. Cn1nnnc1COc1nc(C(F)(F)F)ccc1C(=S)Nc1nnnn1C
4. Cc1nc(COCc2nc(C(F)(F)F)ccc2C(=S)Nc2nnnn2C)nn1C
5. Cn1nnc(COCc2nc(C(F)(F)F)ccc2C(=O)Nc2nnnn2C)n1

[0, 0, 1, 2, 0]

----------
Tested on: cotton
Assay: Phytotoxicity test for upland field crops (foliar treatment test)
Type: in vivo
Parameters: key: 0 (no harm); 9 (complete withered)
Conditions: 50 g ai/ha, Cotton (14 days after treatment)
endpoint: Foliar treatment phytotoxicity, Cotton
One number for each entry.

[
  {
    "compound": "Cn1nnnc1CSc1nc(C(F)(F)F)ccc1C(=S)Nc1nnnn1C [1-44]",
    "endpointValue": 9
  },
  {
    "compound": "COC(=O)OC(C)N(C(=O)c1ccc(C(F)(F)F)nc1COCc1nnn(C)n1)c1nnnn1C (centres unmarked) [Compound No. 4-4]",
    "endpointValue": 0
  },
  {
    "compound": "Cn1nnc(COc2nc(C(F)(F)F)ccc2C(=O)Nc2nnnn2C)n1 [Compound No. 2-1]",
    "endpointValue": 8
  },
  {
    "compound": "Cn1nnnc1NC(=O)c1ccc(C(F)(F)F)nc1OCc1nnnn1C(F)F [Compound No. 1-26]",
    "endpointValue": 6
  },
  {
    "compound": "Cn1nnc(COCc2nc(C(F)(F)F)ccc2C(=S)Nc2nnnn2C)n1 [Compound No. 2-106]",
    "endpointValue": 9
  }
]

Hello, I would appreciate it if you could give Foliar treatment phytotoxicity, Cotton for each entry below.
1. Cn1nnc(COCc2nc(C(F)(F)F)ccc2C(=O)N(C(=O)c2ccccc2)c2nnnn2C)n1 [Compound No. 2-68]
2. Cn1cnc(COCc2nc(C(F)F)ccc2C(=O)Nc2nnnn2C)n1 [Compound No. 2-85]
3. Cn1nnnc1NC(=O)c1ccc(C(F)(F)F)nc1Sc1nnnn1C [Compound No. 1-40]

1: 9; 2: 7; 3: 3

----------
Hi there, I'd appreciate the recorded Foliar treatment phytotoxicity, Rice for every entry that follows.
System: rice
Test: Phytotoxicity test for upland field crops (foliar treatment test)
Format: in vivo
Settings: 50 g ai/ha, Rice (14 days after treatment)
Numbers only.

Check out these entries, answers already filled in.
[
  {
    "compound": "Cn1nnc(COCc2nc(C(F)(F)F)ccc2C(=S)Nc2nnnn2C)n1",
    "Foliar treatment phytotoxicity, Rice": 7
  },
  {
    "compound": "Cc1nc(COCc2nc(C(F)(F)F)ccc2C(=S)Nc2nnnn2C)nn1C",
    "Foliar treatment phytotoxicity, Rice": 6
  }
]

Please look at the items below and tell me Foliar treatment phytotoxicity, Rice for each one, in order.
1. Cn1nnc(COc2nc(C(F)(F)F)ccc2C(=O)Nc2nnnn2C)n1
2. Cn1ncnc1COCc1nc(C(F)(F)F)ccc1C(=O)Nc1nnnn1C
3. COC(=O)OC(C)N(C(=O)c1ccc(C(F)(F)F)nc1COCc1nnn(C)n1)c1nnnn1C (stereo not drawn)
4. Cn1cnc(COCc2nc(C(F)F)ccc2C(=O)Nc2nnnn2C)n1

1. 3
2. 8
3. 4
4. 7

----------
Test system: bindweed
Assay: Herbicidal activity test against upland field weeds (foliar treatment test)
Type: in vivo
Parameters: key: 0 (no control); 100 (complete control)
Details: 50 g ai/ha, scale 0-100
Please go through the items and note down their Foliar treatment herbicidal activity, Bindweed.

Previously resolved entries follow.
[
  {
    "molecule": "COC(=O)OC(C)N(C(=O)c1ccc(C(F)(F)F)nc1COCc1nnn(C)n1)c1nnnn1C (stereo not shown)",
    "endpointValue": 100
  },
  {
    "molecule": "CC(OC(=O)OC1CCCCC1)N(C(=O)c1ccc(C(F)(F)F)nc1COCc1nnn(C)n1)c1nnnn1C (stereo not shown)",
    "endpointValue": 100
  },
  {
    "molecule": "CN(Cc1nnnn1C)c1nc(C(F)(F)F)ccc1C(=O)Nc1nnnn1C",
    "endpointValue": 100
  },
  {
    "molecule": "CCOC(=O)OC(C)N(C(=S)c1ccc(C(F)(F)F)nc1CSCc1nnn(C)n1)c1nnnn1C (stereo not shown)",
    "endpointValue": 100
  }
]

Here are 3 molecules. What values of Foliar treatment herbicidal activity, Bindweed were reported for them?
1. Cn1nnc(CN(OCc2ccccc2)c2nc(C(F)(F)F)ccc2C(=O)Nc2nnnn2C)n1
2. CCOC(=O)OC(C)n1nnn(C)c1=NC(=O)c1ccc(C(F)(F)F)nc1CSCc1nnn(C)n1 (stereo not shown)
3. Cn1nnnc1NC(=O)c1ccc(C(F)(F)F)nc1COCc1nc(C(F)F)n(C)n1

0
100
80

Each of the following entries comes with a recorded value; kindly state Foliar treatment herbicidal activity, Bindweed for each.
1. COC(=O)OC(C)N(C(=O)c1ccc(C(F)(F)F)nc1CSCc1nnn(C)n1)c1nnnn1C (stereo not shown)
2. Cn1nnnc1COc1nc(C(F)(F)F)cc(Cl)c1C(=O)Nc1nnnn1C
3. CCCn1nnnc1NC(=O)c1ccc(C(F)(F)F)nc1COCc1nc(C(F)F)n(C)n1
4. Cn1nnc(CNc2nc(C(F)(F)F)ccc2C(=O)Nc2nnnn2C)n1

100
0
70
0

Look up Foliar treatment herbicidal activity, Bindweed for the entries below, preserving their order.
1. CC(C)OC(=O)OC(C)N(C(=O)c1ccc(C(F)(F)F)nc1COCc1nnn(C)n1)c1nnnn1C (stereo not shown)
2. CCON(Cc1nnn(C)n1)c1nc(C(F)(F)F)ccc1C(=O)Nc1nnnn1C
3. Cn1nnnc1COc1nc(Cl)ccc1C(=O)Nc1nnnn1C
4. CCc1cc(C(=O)Nc2nnnn2C)c(OCc2nnnn2C)nc1C(F)(F)F
5. Cn1cnc(COCc2nc(C(F)F)ccc2C(=O)Nc2nnnn2C)n1

[100, 0, 0, 0, 99]
